molecular target: biotinylated labeled human GPC3 protein (produced in-house) (human, UniProt P51654 25-559, limits assumed, biotinylated (Dojindo, Cat. No. LK03); sites not stated); assay: ELISA, biotinylated human GPC3 protein
Quick reference: OD450 at 13.33 nM of the listed items.
Form entry: value (OD450) — number only.

Requested read-out: OD450 at 13.33 nM. Entry: hAb006LH3L1a (antibody, human IgG1, V domains shown, Humanized F3.38.7; VH H3 + VL L1a; expressed as human IgG1) VH: EVQLVQSGAEVKKPGSSVKVSCKASGYTFTDYEIHWVRQAPGQGLEWMGAIDPKTGNTAYNQKFMGRVTLTADKSTSTAYMELSSLRSEDTAVYYCTRYFSFAYWGQGTLVTVSS VL: DIVMTQTPLSLPVTPGEPASISCRSSQTFVHSDGNTYLQWYLQKPGQSPQLLIYKVSNRFSGVPDRFSGSGSGTDFTLKISRVEAEDVGVYYCFQGSHVPYTFGQGTKLEIK
1.83

hAb003LH2L1 (antibody, human IgG1, V domains shown, Humanized F2.154.1; VH H2 + VL L1; expressed as human IgG1) VH: EVQLVQSGAEVKKPGSSVKVSCKASGYRFTDYEMHWVRQAPGQGLEWMGTIDPETGNTAYTQKFMDRVTITADKSTSTAYMELSSLRSEDTAVYYCTRGYSFTYWGQGTLVTVSS VL: DIVMTQTPLSLPVTPGEPASISCRSSQNIVHSNGNTYLQWYLQKPGQSPQLLIFKVSNRFSGVPDRFSGSGSGTDFTLKISRVEAEDVGVYYCFQGSHVPFTFGQGTKLEIK , same question.
2.53

Also need hAb006LH1L1a (antibody, human IgG1, V domains shown, Humanized F3.38.7; VH H1 + VL L1a; expressed as human IgG1) VH: EVQLVQSGAEVKKPGSSVKVSCKASGYTFSDYEIHWVRQAPGQGLEWMGAIDPKTGNTAYNQKFMGRVTITADKSTSTAYMELSSLRSEDTAVYYCTRYFSFAYWGQGTLVTVSS VL: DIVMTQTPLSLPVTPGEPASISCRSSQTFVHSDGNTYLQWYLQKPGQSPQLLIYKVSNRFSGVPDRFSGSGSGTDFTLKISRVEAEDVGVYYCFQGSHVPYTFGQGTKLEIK , thanks.
1.92
